methodNotes: yeast display, Sf9 membrane polyspecificity reagent, FACS + sequencing; frameworks hold sequencing errors
assayReadout: polyreactivity (PSR sort gate)

sequence=QVQLVESGGGLVQAGGSLRLSSAASGSTFDYYALGWYSQARGKERELVAAISTSGSSTYYADSVKGRFTISRDNAKNTVYLQMNSLKPVDTAVYYCAAPIRYKGGYWGQGTQVTVSS assayreadout="polyreactivity (PSR sort gate)" observedresult="low polyreactivity"
sequence=QVQLVESGGGLVQAGGSLRLSCAASGFIFWQYTLGWYRQAPGKERELVAAINGGSSTYYADSVKGRFTISRDNAKNTVYVQKNSRKPEDTAVYYCAADRYLYHDRYEYDYWGQGTQVTVSS assayreadout="polyreactivity (PSR sort gate)" observedresult="high polyreactivity"
sequence=QVQLVESGVGLVQAGGSLRLSCAASGIFYGYAMGWYRQAPGKERELVAAISSGGSTYYADSVKGRFTISRDNAKNTVYLQMISLNPEDTAVYYCAAGKKRPGWTFPRYYWGQGTQVTVSS assayreadout="polyreactivity (PSR sort gate)" observedresult="high polyreactivity"
sequence=QVQHVESGGGLVQAGGSLRLSCAASGSTFAVYTMGWYRQAPGKERELSTSYADSVKGRFTISRDNAKNTVYLQMNSLKPEDTAVYYCNRDFYEFDSNSYRFDYWGQGTQVTVSS assayreadout="polyreactivity (PSR sort gate)" observedresult="low polyreactivity"
sequence=HVQLQESGGGLVQAGGSLRLSCAASGSISRNYDMGWYRQAPGKEREFVAGISGGAITYYADSVKGRFTISRDNAKNTVYLQMNSLKPEDTAVYYCAADTGVYQYHSYWGQGTQVTVSS assayreadout="polyreactivity (PSR sort gate)" observedresult="low polyreactivity"
sequence=QVQLVESGGGLVQAGGSLRLSCAASGSIVYVYAMGWYRQAPGKEREVVAAINTSGGSTYADSVKGRFTISRDNAKNTVYLQMNSLKPEDTAVYYCAADGYYEYTWGEYDSWGQGTQVTVSS assayreadout="polyreactivity (PSR sort gate)" observedresult="low polyreactivity"

Problem: Given the entry QVQLVESGGGLVQAGGSLRLSCAASGRIFVSNAMGWYRLAPGKERELVATISRSGGNTYYADSVKGRFTISRDNAKNTVYLQMNSLKPEYTAVYYSNSVSRRSYVKYDYWRQGTQVTVSS , report its measured polyreactivity (PSR sort gate).
Solution: high polyreactivity

Problem: Consider next the sequence QVQLVESGGGLVQAGGSLRLSCAASGSTFRYNAMGWYRQEPGKERELVAAISSSGGSTRYADSVKGRFTISRDNAKNTVYLQMNSLKPEDTAVYHCAVRFYDWRYYYWGQGTQVTVSS in the same way.
Solution: high polyreactivity

Problem: Query QVQLVESGGGLVQAGGSLRLSCAASGFTIFEDNAMGSYRQAPGKERELVAAITSGGSTNYADSVKGRFTISRDNAKNTVYLQMNSLKPEDTAVYYCAYDRVPLKTRFYYFPWGYDYWGQGTQVTVSS next
Solution: low polyreactivity

Problem: Record: QVQLVEAGGGLVQAGGRLRLSCAASGIIIVPYTMGWYRQAPGKERELVAAISRSGGRTYYADSVKGRFTISRDNAKNTVYLQMNSLKPEDTAVYDCNKRSLYYGYYLYYRMDYWGQGTQVTVSS
Solution: high polyreactivity

Problem: Repeat for the following sequence: QVQLVESGGGLVQAGGSLRLSCAASGRIFTTYAMGWYRQAPGKERELVASISWRVGSTYYADTVKGRFTISRDNAKITVYLQMNSLKPEETAVYYCAAVGGNYHASRLRYYWGQVTQVTVSS
Solution: low polyreactivity

Problem: Moving on to the next sequence: QVHLVESGGGLVQAGGSLRLTCAASGSIFSYAMGWYRQAPGKESELVAAISSGGGRTYYADSVKGRFTISRDNAKNTVYLQMNRLKPEDTAVYFCAAVGLPQGRYGYWGQGTQVTLSS
Solution: high polyreactivity

Problem: Further, for QVQLVESGGGLVQAGGSLRLSCAASGSIFVRNGMGWYRQAPGKERELVASITSGTITYYADSVKGRFTISRDNAKNTVYLQMNSLKPEDTAVYYCAAYQYPADFKLYYYWGQGTQVTVSS ?
Solution: high polyreactivity

Problem: Lookup QVQLVESGGGLVQAGGSLRLSCAASGSTFNSNAMGWYRQAPGKERELVAAINYSGGSTYYADSVKGRFTISRDNAKNTVYLQMNSLKPEDTAVYYCNKVYFDHYLSRVYYWGQVTQVTVSS
Solution: high polyreactivity

---

methodNotes: yeast display, Sf9 membrane polyspecificity reagent, FACS + sequencing; frameworks hold sequencing errors
assayReadout: polyreactivity (PSR sort gate)

sequence=QVQLVESGGGLVQAGGSLRLSCAASGRTSRYYAMGWYRQAPGKERELVATITRGGTTNYADSVKGRFTISRDNAKNNVYLQMNSLKPEDTAVYYCNKVFRAPGVSDYGYWGQGTQVTVSS assayreadout="polyreactivity (PSR sort gate)" observedresult="high polyreactivity"
sequence=QVQLVESGGGLVQAGGSLRLSCAASGRILGSYAMGWYRQAPGKERELVAGISWRGGRTYYADSVKGRFTISRDNAKNTVYLQMNSLKPEDTAVYYCATRSSSRKYGYWGQGTQVTVSS assayreadout="polyreactivity (PSR sort gate)" observedresult="high polyreactivity"
sequence=QVQLVESGGCLVQAGGSLRLSCAASGSIFHPYAMGWYRPAPGKERELVAAISKSGGNTYYADSVKGRFTISRDNAKNTVYLQMNSLKPEHTEVYYCAADYYRGRYSDRYDYWGQGTQVTVSS assayreadout="polyreactivity (PSR sort gate)" observedresult="low polyreactivity"
sequence=QVQLVESGGGLVQAGGSLRLTCAASGRILYSYAMGWYRQEPGKERELVAAISGSGGSTYYADSVKGRFTISRDNSKNTVYLQMNMLKPEDTAVYYCAARDLYRYRPQGLGSSQRYYYWGQGTQVTVSS assayreadout="polyreactivity (PSR sort gate)" observedresult="high polyreactivity"

Turning now to a further sequence:
Problem: Fill in: polyreactivity (PSR sort gate) of QVQLVESGGGLVQAGGSLRLSCAASGITFPDNAMGWSRQAPGKERELVAAITYSGGSTYYADSVKGRFTISRDNAKNTVYLQMNSLKPEDTAVYYCAADWYWSSSYSDWEDYWGQGTQVTVSS is ___
Solution: low polyreactivity

---

methodNotes: yeast display, Sf9 membrane polyspecificity reagent, FACS + sequencing; frameworks hold sequencing errors
assayReadout: polyreactivity (PSR sort gate)

A selection of reference data follows.
sequence=QVQLVESGGGLVQAGGSLRLSCAASGSTFGPYAMGWYRPAPGKERELVAAITSSGGTTYYADSVKGRFTISRDNAKNTVYLQMNSLKPEDTAVYYCAVDYYGKVGDDYWGQGTQVTVSS assayreadout="polyreactivity (PSR sort gate)" observedresult="low polyreactivity"
sequence=QVQLVESGGGLVQAGGSLRLSCAASGRTFWWYAMGWYRQAPGKERELVADINGSGGSTYYADSVKGRFTISRDNAKHTVYLQMNSLKPEDTAVYYCAADYYRYIHSVVYSIYDYWGQGTQVTVSS assayreadout="polyreactivity (PSR sort gate)" observedresult="low polyreactivity"
sequence=QVQLVESGGGLVQAGGSLRLSCAASGSTFGGYAMGWYRQAPGKERELVAAISSGGSTYYADSVKGRFTISRDNAKNTVYLQMNSLKPEDTAVYYCAAEGIYFILWYGYVEYDYWGQGTQVTVSS assayreadout="polyreactivity (PSR sort gate)" observedresult="low polyreactivity"
sequence=QVQLVESGGGLVQAGGSLRLTCAASGYTFVLNALGWYRQAPGKEREFVAAITWSGGSTYYADSVKGRFTISRDNAKNTVYLQMNSLKAEDTAVYYCAADPDSGQVPFDYWGQGTQVTVSS assayreadout="polyreactivity (PSR sort gate)" observedresult="low polyreactivity"
sequence=QVQLVESGGGLDQAGGSLRLSCAAYGITFGYYAMGWYRQAPGKERELVASITTRGGSTSYADSVKGRFTISRDNAKNTVYLQMNSLKPEDTAVYYCAARWRQRKSVRYGQQGYDYWGQGTQVTVSS assayreadout="polyreactivity (PSR sort gate)" observedresult="high polyreactivity"
sequence=HVQRVESAGGLVQAGGSLRLSCADSGLIFRGNAMGWYRQAPGKVRELVATISYSGGSTYYADSVKGRFTISRENAKNTVYLQMNSLKPEDTAVYYCNRDPDPWGFQPDWYYGSYDYWGQGTQVTVSS assayreadout="polyreactivity (PSR sort gate)" observedresult="low polyreactivity"

Problem: Could you tell me which polyreactivity (PSR sort gate) is on file for QVQLVESGGGLVQAGGSLRLSCAASGFTFVYNAMGWYRQAPGKERELVAAITFSGGSTYYADSVNGRFTISRDNAKNTVYLQMNSLKPEDTAVYYCATDYPGVFVLRRSHPYDYWGQGTQVTVSS ?
Solution: low polyreactivity

Problem: Queued: QVQLVESGGGLVQAGGSLRLSCAASGFIFYFYAMGWYRQATGKEMELVAAISDGVSTYYADSVKGRFTISRDNAKNTVYLQMNCLKPEDTAVYYCAVSRGDDPEFDYWGQGTQVTVSS
Solution: low polyreactivity

Problem: Another sequence: QVHLVESGGGLVQAGGSLRLSCAASGLIFAFYGMGWYRPAPGKERELVASIDKSGGSTYADSVKGRFTISRDNAKNTVYLQMNSLKPEDTAVSYCATNVGGGWAYEYWGQGTQVTVSS
Solution: low polyreactivity

Problem: Again, but for QVQLVESGGGLVQAGGRLRLSCAASGGWYRQAPGKERELVAAISWRDSSTYYADSVKGRFTISRDNAKNTVYLQMNSLKPEDTAVYYCAVRAYPWPEYYYWGQGTQVTVSS
Solution: low polyreactivity

Problem: Next record, please: QVQLVESGGGLVQAGGSLRLSCAASGLIFFYYAMGWYRQAPGKERELVATINWNGGSTYYADSVKGRFTISRDNAKNTVYLQMNSLKPEDTAVYYCAADAPAGGDSDNDYWGQGTQVTVSS
Solution: high polyreactivity

Problem: Next sequence: QVQLVESGGGLVQAGGSLRLSCAASGSIFGRNTMGWYRQAPGKERELVAAISSSGGSTRYADSVKGRFTISRDNAKITVYLQMNSLKQEDTAVYYCNDRPRTIYVNRKYDYWGQCTQVTVSS
Solution: high polyreactivity

Problem: Also QVQLVESGGGLVQAGGSLRLSCAASGSIFPYNAMGWYRQERGNERELVAAISISGGSTYYADSVKGRFTISRDNAKNTVYFQMNSLKPEDTAVYYCAARQTLSSAFDYWGQGTQVTVSS ?
Solution: low polyreactivity

Problem: And what about the sequence QIQLVESGGGLVQAGGSLRLSCAASGFTFYWYAMGWYRQAPGKEREFVAAIDQSGGSTYYADSVKGRFTISRDNAKNTVYLQMNSLKPEDTAVYYCAARYILWDGDSWTEFDYWGQGTQVTVSS ?
Solution: low polyreactivity

Problem: Same lookup for QVQLVESGGGLVQAGGSLRLSCAASGLIFWHYAMGWYIQAPGKERELVARISYGGGSTYYADSVKGRFTISRDNAKNTVYLQMISLKPEDTSVYYCNAKYYSVSQYYWGQGTQVTVSS , please.
Solution: high polyreactivity

Problem: Entry to check: QVQLVESGGGLVQAGGSLRLSCAASGSTFGVYAMGWYRQAPGKDRELVAAISRSGGRTYYADSVKGRFTISRDNAKNSVYLQMNSLKPEDTAVYYCALYGGLGDRFRPRYYWGQGTQVTVSS
Solution: high polyreactivity

Problem: Do the same for QVQLVESGGGLVQAGGSLRLSCAASGHTFAYNAMGWYRQAPGKEREFVAAITWSTDNTYYADSVKGRFTISRDNAKNTVYLQMNTLKPEDTAVYYCAVDVYFYYRHYGYWGQGTQVTVSS please
Solution: low polyreactivity

Problem: Input QVQLVESGGGLVQAGGSLRLSCAASGSTLNYYAMGWYRQAPGKERELVAAITWSGGSTSYADSVKGRFTISRDNAKNTVYVQMNSLKPEDTAVYYGATDFPTVQLYDTDWLSSDMGYWGQGTQVTVSS
Solution: low polyreactivity

Problem: Proceed to QVQLVESGGGLVQAGGSLRLSCAAAGITFTVYAMGWYRPAPGKERELVAAISQSGGSTYYADSVKGRFTISRDNAKNTVSLQMNSMKPEDTAVYSCNADTVWVPYRTYIPFDYWGQGTQVTVSS
Solution: low polyreactivity

Problem: And QVQLVESGGGLVQAGGSLRLSCAASGRTFRSYAMGWYRQAPGKDRELVAAISYGGGRTFYADSVKGRFTISRDNEKNTVYLQMNSLKPEDTAVYYCNAAFPRSYRFDYWGQGTQLTVSS ?
Solution: high polyreactivity

Problem: // repeat for QVQRVESGGGLVQAGGSLLLSCAASGRIFVTYAKGWYRQAPGKERDLVASITGGGSRYYADSVKGRVTISRDKAKTTVYVQMTRLKPEDPAVNYCAAKSRSWYFGYGYWGQGTQVTVSS and report
Solution: high polyreactivity
